Test system: pigweed (Amaranthus retroflexus)
protocol details: Test A pre-/postemergence greenhouse herbicide test, visual injury rating 0-100
Format: in vivo
condition description: Preemergence, 1000 g ai/ha
Quick reference: Plant response rating (0 to 100 scale), Pigweed of the listed items.
Reply with just the number.

Look over these answered cases.
N#CN=C(c1ccccc1)c1c[nH]nc1-c1cc(Cl)cc(Cl)c1	50
Clc1cc(Cl)cc(-c2n[nH]cc2C(=NN2CCCCC2)c2ccccc2)c1	100

// field: Plant response rating (0 to 100 scale), Pigweed; key: CCn1cc(C(=O)c2ccccc2)c(-c2cc(Br)cc(Br)c2)n1 ; value = 90

// field: Plant response rating (0 to 100 scale), Pigweed; key: CC(=O)n1cc(C(=O)c2cncc(F)c2)c(-c2cc(Cl)cc(Cl)c2)n1 ; value = 100

// field: Plant response rating (0 to 100 scale), Pigweed; key: ON=C(c1ccccc1)c1c[nH]nc1-c1cc(Br)cc(Br)c1 ; value = 80

// field: Plant response rating (0 to 100 scale), Pigweed; key: CCn1cc(C(=O)c2ccccc2)c(-c2cc(F)cc(C(F)(F)F)c2)n1 ; value = 100

// field: Plant response rating (0 to 100 scale), Pigweed; key: CCn1cc(C(=O)c2ccccc2)c(-c2cc(F)cc(Cl)c2)n1 ; value = 100

// field: Plant response rating (0 to 100 scale), Pigweed; key: CCn1cc(C(=O)c2ccccc2)c(-c2cc(F)cc(Br)c2)n1 ; value = 100

// field: Plant response rating (0 to 100 scale), Pigweed; key: Fc1cccc(NN=C(c2ccccc2)c2c[nH]nc2-c2cc(Cl)cc(Cl)c2)c1 ; value = 100

* * *

Test system: wheat (Triticum aestivum)
protocol details: Test A pre-/postemergence greenhouse herbicide test, visual injury rating 0-100
Assay type: in vivo
condition description: Preemergence, 500 g ai/ha
Quick reference: Plant response rating (0 to 100 scale), Wheat of the listed items.

O=C(c1ccccc1)c1cn(S(=O)(=O)CCl)nc1-c1cc(Cl)cc(Cl)c1	0
CCn1cc(C(=NN2CCCC2)c2ccccc2)c(-c2cc(Cl)cc(Cl)c2)n1	0

# ---- query compound ----
The compound O=C(c1cncc(F)c1)c1c[nH]nc1-c1cc(F)cc(F)c1 , when measured on wheat (Triticum aestivum), yielded Plant response rating (0 to 100 scale), Wheat of 0

* * *

Test system: hairy beggarticks (Bidens pilosa)
protocol details: Test E pre-/postemergence greenhouse test, plant response rating 0-100
Type: in vivo
condition description: Postemergence, 62 g ai/ha; scale 0 to 100
Text: […] Treated plants and controls were maintained in a greenhouse for 14 to 21 days, after which time all species were compared to controls and visually evaluated. […]
Quick reference: Plant response rating, Beggarticks of the listed items.
Reply with just the number.

Look over these answered cases.
Fc1ccc(NN=C(c2ccccc2)c2c[nH]nc2-c2cc(Cl)cc(Cl)c2)cc1	98
O=C(c1ccccc1)c1cn(S(=O)(=O)C(F)(F)F)nc1-c1cc(Cl)cc(Cl)c1	90

// field: Plant response rating, Beggarticks; key: Fc1cccc(NN=C(c2ccccc2)c2c[nH]nc2-c2cc(Cl)cc(Cl)c2)c1 ; value = 80

// field: Plant response rating, Beggarticks; key: Cn1cc(C(=O)c2cccs2)c(-c2cc(Cl)cc(Cl)c2)n1 ; value = 25

// field: Plant response rating, Beggarticks; key: O=C(c1ccccc1)c1cn(S(=O)(=O)CCl)nc1-c1cc(Cl)cc(Cl)c1 ; value = 95
